- target.system: hP2X2/3H (Homo sapiens, UniProt P56373+Q9UBL9)
- Construct: expressed in transfected cells; host or cells: e.g. HEK293 or 1321N1
- Sequence (Q9UBL9 whole entry): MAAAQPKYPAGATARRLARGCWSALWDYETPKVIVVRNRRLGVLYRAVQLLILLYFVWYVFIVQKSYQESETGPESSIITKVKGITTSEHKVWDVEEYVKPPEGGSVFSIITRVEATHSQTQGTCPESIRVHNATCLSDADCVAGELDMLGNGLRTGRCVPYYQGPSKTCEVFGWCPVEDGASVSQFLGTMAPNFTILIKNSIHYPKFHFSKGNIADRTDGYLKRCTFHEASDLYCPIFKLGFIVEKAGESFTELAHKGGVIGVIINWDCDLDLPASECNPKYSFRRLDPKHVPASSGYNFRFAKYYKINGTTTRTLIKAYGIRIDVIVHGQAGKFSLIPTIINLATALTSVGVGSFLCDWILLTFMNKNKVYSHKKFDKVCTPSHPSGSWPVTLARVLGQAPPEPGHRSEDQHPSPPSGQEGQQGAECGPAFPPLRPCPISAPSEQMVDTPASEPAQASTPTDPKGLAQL
- Sequence (P56373 whole entry): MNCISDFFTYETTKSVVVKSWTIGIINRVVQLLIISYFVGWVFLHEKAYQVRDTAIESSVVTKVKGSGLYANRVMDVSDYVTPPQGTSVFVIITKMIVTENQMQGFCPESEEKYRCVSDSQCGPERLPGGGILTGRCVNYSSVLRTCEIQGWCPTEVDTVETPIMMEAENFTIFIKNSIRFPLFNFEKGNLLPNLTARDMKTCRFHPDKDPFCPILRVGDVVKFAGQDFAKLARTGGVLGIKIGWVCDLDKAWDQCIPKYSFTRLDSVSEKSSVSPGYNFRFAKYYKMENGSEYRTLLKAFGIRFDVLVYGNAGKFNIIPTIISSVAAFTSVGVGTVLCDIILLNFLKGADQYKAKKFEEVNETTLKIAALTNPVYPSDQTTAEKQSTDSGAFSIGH
- assay.remarks: Calcium uptake assay (P2X antagonist assay), P2X2/3 heteromer
- Assay type: cell-based
- test.settings: Ca influx (calcium uptake assay), hP2X2/3H; read-out: IC50 hP2X2/3H
pIC50: −log10 of the molar value.
# pIC50 listing for each entry below

compound	pIC50
Cc1ccc(-c2cc(CO)cc(C(=O)NCc3ccc(C)nc3)c2)c(C#N)c1 [Compound 306]	6.30 to 7.00
Cc1ccc(-c2cc(OC3COCC3O)cc(C(=O)N[C@H](C)c3ccc(C)nc3)c2)cc1 (stereo partly shown) [Compound 336]	> 7.00
COCC(OC)c1cc(C(=O)N[C@H](C)c2ccc(C)nc2)cc(-c2ccc(C)cc2)c1 (stereo partly shown) [Compound 380]	> 7.00
Cc1ccc(-c2cc(C(=O)NCc3cnc(C)nc3)cc(S(C)(=O)=O)c2)nc1 [Compound 307]	< 6.00
Cc1ccc(-c2cc(C(=O)NCc3ncc(C(F)(F)F)cc3Cl)cc(S(C)(=O)=O)c2)nc1 [Compound 350]	6.30 to 7.00
Cc1ccc(-c2cc(C(=O)NCc3ccc(C)[n+]([O-])c3)cc(S(C)(=O)=O)c2)cc1 [Compound 256]	> 7.00
Cc1ccc(-c2cc(OC(F)(F)F)cc(C(=O)NCc3ccc(C)nc3)c2)nc1 [Compound 220]	< 6.00
Cc1ccc(-c2cc(Oc3ccccn3)cc(C(=O)N[C@H](C)c3cnc(C)nc3)c2)c(C#N)c1 [Compound 258]	6.30 to 7.00
Cc1ccc(-c2cc(OCCO)cc(C(=O)N[C@H](C)c3ccc(C)nc3)c2)c(C#N)c1 [Compound 305]	> 7.00
Cc1ccc(-c2cc(OC3COCC3O)cc(C(=O)N[C@H](C)c3ccc(C)nc3)c2)c(C#N)c1 (stereo partly shown) [Compound 337]	> 7.00

Prompt: Looking for the measured pIC50 of Cc1ccc(-c2cc(Oc3nc(C)cs3)cc(C(=O)N[C@H](C)c3ccc(C)nc3)c2)cc1 [Compound 381] , can you help?
Response: > 7.00

Prompt: Looking for the measured pIC50 of CCS(=O)(=O)c1cc(C(=O)N[C@H](C)c2cnc(C)nc2)cc(-c2ccc(C)cc2)c1 [Compound 210] , can you help?
Response: > 7.00

Prompt: Looking for the measured pIC50 of Cc1ccc(-c2cc(C(=O)N[C@H](CCO)c3ccc(C)nc3)cc(S(C)(=O)=O)c2)cc1 [Compound 205] , can you help?
Response: > 7.00

Prompt: Looking for the measured pIC50 of Cc1ccc(-c2cc(OC3CNCC3O)cc(C(=O)N[C@H](C)c3ccc(C)nc3)c2)c(C#N)c1 (stereo partly shown) [Compound 338] , can you help?
Response: 6.30 to 7.00

Prompt: Looking for the measured pIC50 of Cc1ccc(-c2cc(C(=O)NCc3ccc(C)nc3)cc(C(O)c3ccccc3)c2)cc1 (stereo not shown) [Compound 228] , can you help?
Response: 6.30 to 7.00

Prompt: Looking for the measured pIC50 of COCCOc1cc(C(=O)N[C@H](C)c2cnc(C)nc2)cc(-c2ccc(C)cc2C#N)c1 [Compound 253] , can you help?
Response: > 7.00
